Taken from PubChem BioAssay AID2060511.

System: 422866-222-R5-J1-PDC spheroids with HUVEC/MSC, viability
METHOD_DESCRIPTION: Anticancer human tumor 422866-222-R5-J1-PDC patient-derived pancreatic adenocarcinoma cell line growth inhibition [GQUAD]
CONDITION_DETAILS: curve of first compound; second compound 0.0316 µM
EXPERIMENTAL_READOUT: IC50

Reference set (6 entries):
[Q] Entry Cc1[nH]c2ccccc2c1CCNCc1ccc(/C=C/C(=O)NO)cc1 + Cc1[nH]c2ccc(F)cc2c1-c1nc2c3cccnc3c3ncccc3c2[nH]1 : reported IC50 = ?
[A] > 0.316 µM

[Q] What would you report for O=c1[nH]cc(F)c(=O)[nH]1 + Cc1[nH]c2ccc(F)cc2c1-c1nc2c3cccnc3c3ncccc3c2[nH]1 ?
[A] > 10 µM

[Q] Can you handle O=C(c1cc(Cc2n[nH]c(=O)c3ccccc23)ccc1F)N1CCN(C(=O)C2CC2)CC1 + Cc1cnc(CNC(=O)c2c(=O)c3ccc(N4CCCN(C)CC4)nc3n3c2sc2ccccc23)cn1 next?
[A] > 10 µM

[Q] Param item: COc1cccc2c1C(=O)c1c(O)c3c(c(O)c1C2=O)CC(O)(C(=O)CO)CC3OC1CC(N)C(O)C(C)O1 (configuration not stated) + Cc1[nH]c2ccc(F)cc2c1-c1nc2c3cccnc3c3ncccc3c2[nH]1
[A] 0.474 µM

[Q] Next: C#Cc1c(F)ccc2cc(O)cc(-c3ncc4c(N5CC6CCC(C5)N6)nc(OCC56CCCN5CC(F)C6)nc4c3F)c12 (configuration not stated) + CN(C)c1ccc(Nc2c3ccc(NC(=O)CCN4CCCC4)cc3nc3cc(NC(=O)CCN4CCCC4)ccc23)cc1
[A] 1.13 µM

[Q] What do you get for O=C(c1cc(Cc2n[nH]c(=O)c3ccccc23)ccc1F)N1CCN(C(=O)C2CC2)CC1 + Cc1[nH]c2ccc(F)cc2c1-c1nc2c3cccnc3c3ncccc3c2[nH]1 ?
[A] > 10 µM

Would you kindly look at the next entry?
[Q] I am curious: what IC50 value has been reported for CCc1c2c(nc3ccc(O)cc13)-c1cc3c(c(=O)n1C2)COC(=O)[C@]3(O)CC + Cc1cnc(CNC(=O)c2c(=O)c3ccc(N4CCCN(C)CC4)nc3n3c2sc2ccccc23)cn1 ?
[A] 0.00187 µM

###

Test system: 422866-222-R5-J1-PDC spheroids with HUVEC/MSC, viability
METHOD_DESCRIPTION: Anticancer human tumor 422866-222-R5-J1-PDC cell line growth inhibition [GQUAD];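 note: spheroids exposed to compounds for seven days before reading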;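 for viability, T/C: percent viability relative to DMSO vehicle control taken as 100%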
CONDITION_DETAILS: second compound 10 µM; first compound 0.00316 µM; stronger effect = lower value
EXPERIMENTAL_READOUT: viability, T/C (%)
Just the number please, in %, no unit attached.

Answered cases to consult:
[Q] Report viability, T/C for Cc1[nH]c2ccccc2c1CCNCc1ccc(/C=C/C(=O)NO)cc1 + Cc1[nH]c2ccc(F)cc2c1-c1nc2c3cccnc3c3ncccc3c2[nH]1 please.
[A] 66.2

[Q] Okay, and CCc1c2c(nc3ccc(O)cc13)-c1cc3c(c(=O)n1C2)COC(=O)[C@]3(O)CC + Cc1[nH]c2ccc(F)cc2c1-c1nc2c3cccnc3c3ncccc3c2[nH]1 ?
[A] 41.5

[Q] What do you get for Cc1[nH]c2ccccc2c1CCNCc1ccc(/C=C/C(=O)NO)cc1 + Cc1cnc(CNC(=O)c2c(=O)c3ccc(N4CCCN(C)CC4)nc3n3c2sc2ccccc23)cn1 ?
[A] 67.8

[Q] Proceed to CC[C@@]1(O)C(=O)OCc2c1cc1n(c2=O)Cc2cc3c(CN(C)C)c(O)ccc3nc2-1 + Cc1cnc(CNC(=O)c2c(=O)c3ccc(N4CCCN(C)CC4)nc3n3c2sc2ccccc23)cn1
[A] 88.7

[Q] What do you get for Cn1ncnc1[C@H]1c2n[nH]c(=O)c3cc(F)cc(c23)N[C@@H]1c1ccc(F)cc1 + Cc1cnc(CNC(=O)c2c(=O)c3ccc(N4CCCN(C)CC4)nc3n3c2sc2ccccc23)cn1 ?
[A] 78.2

---
[Q] Which viability, T/C value belongs to CC[C@@]1(O)C(=O)OCc2c1cc1n(c2=O)Cc2cc3c(CN(C)C)c(O)ccc3nc2-1 + CN(C)c1ccc(Nc2c3ccc(NC(=O)CCN4CCCC4)cc3nc3cc(NC(=O)CCN4CCCC4)ccc23)cc1 ?
[A] 96.3

[Q] Next up: CCc1c2c(nc3ccc(O)cc13)-c1cc3c(c(=O)n1C2)COC(=O)[C@]3(O)CC + Cc1cnc(CNC(=O)c2c(=O)c3ccc(N4CCCN(C)CC4)nc3n3c2sc2ccccc23)cn1
[A] 74.8

[Q] Next entry: Cc1[nH]c2ccccc2c1CCNCc1ccc(/C=C/C(=O)NO)cc1 + CN(C)c1ccc(Nc2c3ccc(NC(=O)CCN4CCCC4)cc3nc3cc(NC(=O)CCN4CCCC4)ccc23)cc1
[A] 95.4

[Q] Try this compound too: CC[C@@]1(O)C(=O)OCc2c1cc1n(c2=O)Cc2cc3c(CN(C)C)c(O)ccc3nc2-1 + Cc1[nH]c2ccc(F)cc2c1-c1nc2c3cccnc3c3ncccc3c2[nH]1
[A] 79.2
